Taken from paper PMC11202142.

The following molecules each carry a recorded pIC50 for acetylcholinesterase (AChE) (Homo sapiens).
pIC50: −log10 of the molar value.
Reported Metric: pIC50

CC12C(=O)C(C)(C(c3ccccc3)=C1c1ccccc1)C1C(=O)NC(=O)C12 (centres unmarked) [II, dimethyl (II) succinimide derivative]
4.54
CCC12C(=O)C(CC)(C(c3ccccc3)=C1c1ccccc1)C1C(=O)NC(=O)C12 (centres unmarked) [I, diethyl (I) succinimide derivative]
4.51
